Hey, just so you know, these numbers are from paper PMC13043311.

assay_system: T1, TLR7 T406S (Macaca mulatta, UniProt B3Y653 27-839, T406S)
T1 sequence: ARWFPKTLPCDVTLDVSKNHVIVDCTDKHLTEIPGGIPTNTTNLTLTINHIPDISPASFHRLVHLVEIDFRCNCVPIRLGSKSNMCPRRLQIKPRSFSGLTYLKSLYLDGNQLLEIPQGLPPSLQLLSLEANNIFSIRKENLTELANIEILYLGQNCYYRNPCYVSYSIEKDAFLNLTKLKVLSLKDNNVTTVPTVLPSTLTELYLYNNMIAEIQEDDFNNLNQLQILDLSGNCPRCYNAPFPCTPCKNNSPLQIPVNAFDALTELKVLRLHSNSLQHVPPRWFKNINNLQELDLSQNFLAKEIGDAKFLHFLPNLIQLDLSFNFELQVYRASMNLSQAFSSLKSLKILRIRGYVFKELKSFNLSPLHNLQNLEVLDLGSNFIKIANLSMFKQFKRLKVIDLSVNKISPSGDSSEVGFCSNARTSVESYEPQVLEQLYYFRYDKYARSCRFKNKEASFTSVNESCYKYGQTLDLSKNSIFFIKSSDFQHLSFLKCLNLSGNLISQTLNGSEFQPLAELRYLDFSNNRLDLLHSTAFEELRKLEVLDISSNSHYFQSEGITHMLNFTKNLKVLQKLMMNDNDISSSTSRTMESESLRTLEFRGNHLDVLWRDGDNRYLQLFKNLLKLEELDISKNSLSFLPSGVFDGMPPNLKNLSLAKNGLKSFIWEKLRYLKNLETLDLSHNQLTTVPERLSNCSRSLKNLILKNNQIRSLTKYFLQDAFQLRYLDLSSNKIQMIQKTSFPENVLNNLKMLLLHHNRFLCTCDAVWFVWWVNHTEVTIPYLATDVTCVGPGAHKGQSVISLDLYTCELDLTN
experiment: SPR; mean computed from runs 0.5±0.09, 0.6±0.1, 0.6±0.1; SPR with recombinant TLR7/TLR8; buffer, pH and temperature not in the material
condition_label: protein: recombinant; chain copies: 2; single-stranded
measured_endpoint: pKd
Scale explanation: pKd corresponds to minus log10 of a concentration expressed in moles per litre.

Data request: Please look up its pKd: GUC (XNA, 2'-OMe G1, RNA U2 C3; phosphorothioate linkages) [mGrUrC PS]
Data returned: 6.24
